Below: a set of entries, each annotated with reported self-cleavage.
B1: CPEB3 Ribozyme (parent)
chain: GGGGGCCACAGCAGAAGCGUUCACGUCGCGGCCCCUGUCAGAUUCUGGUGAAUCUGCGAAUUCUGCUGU

Variants of: B1
Assay Notes: self-cleavage, relative activity (ratio to wild type); higher = more cleavage; co-transcriptional

>  <Mutant Id>
U20G U21C

>  <self-cleavage>
0.166

$$$$
>  <Mutant Id>
C45U U67A

>  <self-cleavage>
1.01

$$$$
>  <Mutant Id>
U20G G65C

>  <self-cleavage>
0.166

$$$$
>  <Mutant Id>
C18U C24U

>  <self-cleavage>
0.4

$$$$
>  <Mutant Id>
G4A A51G

>  <self-cleavage>
0.787

$$$$
>  <Mutant Id>
G19A U64A

>  <self-cleavage>
0.104

$$$$
>  <Mutant Id>
A15G G65A

>  <self-cleavage>
0.82

$$$$
>  <Mutant Id>
C9A A16C

>  <self-cleavage>
0.56

$$$$
>  <Mutant Id>
G37U A60G

>  <self-cleavage>
0.208

$$$$
>  <Mutant Id>
G3A U64A

>  <self-cleavage>
0.458

$$$$
>  <Mutant Id>
C6U U36C

>  <self-cleavage>
0.969

$$$$
>  <Mutant Id>
C9A U49G

>  <self-cleavage>
1.04

$$$$
>  <Mutant Id>
C35A C57G

>  <self-cleavage>
0.192

$$$$
>  <Mutant Id>
G37C C45G

>  <self-cleavage>
0.346

$$$$
>  <Mutant Id>
C9G A16C

>  <self-cleavage>
0.548

$$$$
>  <Mutant Id>
G2U C27A

>  <self-cleavage>
0.0514

$$$$
>  <Mutant Id>
G68A U69A

>  <self-cleavage>
1.08

$$$$
>  <Mutant Id>
G4C G17U

>  <self-cleavage>
0.0737

$$$$
>  <Mutant Id>
C9A A13C

>  <self-cleavage>
0.965

$$$$
>  <Mutant Id>
C45A A59G

>  <self-cleavage>
0.971

$$$$
>  <Mutant Id>
G1C G5A

>  <self-cleavage>
0.272

$$$$
>  <Mutant Id>
A42C G56A

>  <self-cleavage>
0.812

$$$$
>  <Mutant Id>
G31A G47A

>  <self-cleavage>
0.897

$$$$
>  <Mutant Id>
G50U A59C

>  <self-cleavage>
0.682

$$$$
>  <Mutant Id>
C7G G47C

>  <self-cleavage>
0.604

$$$$
>  <Mutant Id>
G17C C57G

>  <self-cleavage>
0.0859

$$$$
